The following binders are listed with their measured EC50 group, cGMP in GTM-3 cells values.
Target: T1, natriuretic peptide receptor-B (human)
T1 chain: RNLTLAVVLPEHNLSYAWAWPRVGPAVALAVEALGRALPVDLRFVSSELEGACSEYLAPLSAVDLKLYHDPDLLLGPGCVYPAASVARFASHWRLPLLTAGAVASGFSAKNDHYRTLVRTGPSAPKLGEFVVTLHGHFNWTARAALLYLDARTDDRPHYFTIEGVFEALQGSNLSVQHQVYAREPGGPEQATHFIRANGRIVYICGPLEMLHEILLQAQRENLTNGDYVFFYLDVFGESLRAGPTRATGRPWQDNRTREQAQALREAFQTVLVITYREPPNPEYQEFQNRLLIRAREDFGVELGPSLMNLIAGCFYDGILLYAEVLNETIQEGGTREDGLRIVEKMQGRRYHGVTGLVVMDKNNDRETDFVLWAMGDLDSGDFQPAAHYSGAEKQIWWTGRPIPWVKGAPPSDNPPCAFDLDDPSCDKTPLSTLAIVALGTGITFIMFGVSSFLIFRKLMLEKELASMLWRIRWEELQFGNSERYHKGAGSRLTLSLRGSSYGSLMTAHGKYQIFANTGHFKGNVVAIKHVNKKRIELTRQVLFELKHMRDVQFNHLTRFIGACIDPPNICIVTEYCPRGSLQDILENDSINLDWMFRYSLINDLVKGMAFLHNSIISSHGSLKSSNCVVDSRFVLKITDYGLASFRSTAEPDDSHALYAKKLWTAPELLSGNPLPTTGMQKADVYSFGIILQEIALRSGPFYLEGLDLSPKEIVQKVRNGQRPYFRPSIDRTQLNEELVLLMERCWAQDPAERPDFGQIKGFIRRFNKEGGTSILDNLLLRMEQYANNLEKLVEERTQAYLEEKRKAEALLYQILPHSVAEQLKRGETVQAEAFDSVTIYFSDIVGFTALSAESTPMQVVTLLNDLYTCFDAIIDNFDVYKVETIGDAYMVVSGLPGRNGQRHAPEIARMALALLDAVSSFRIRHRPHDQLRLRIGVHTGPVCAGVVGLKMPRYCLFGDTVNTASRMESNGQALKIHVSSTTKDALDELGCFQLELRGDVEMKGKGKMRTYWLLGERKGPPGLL
Experiment: cell-based or functional assay
Numbered stars: 1 amine (or outer) side, 2 acyl side, 3 side chain; on linkers, the order of the positions; unused ones are H or OH. Square brackets hold non-standard residues; d marks the D form. Ends that are not written are not given here. * marks the point of attachment. 3218 = (S)-2-cyclopentylhexanoic acid, CCCC[C@H](C(=O)*)C1CCCC1; Sni = (S)-nipecotic acid, O=C([C@H]1CCCN([*:1])C1)[*:2]; Fhy = Amino-piperidin-3-yl-acetic acid; Gly(NCH2CH2Ph) = O=C(O)CNCCc1ccccc1; Hyp = O=C(O)[C@@H]1C[C@@H](O)CN1; d(β3hL) = CC(C)C[C@@H](N)CC(=O)O; NMeL = CN[C@@H](CC(C)C)C(=O)O; Che = not defined here; leu = not defined here; Occ = octanoic acid; Sar = CNCC(=O)O
READOUT_TYPE: EC50 group, cGMP in GTM-3 cells

{"BINDER": "[Occ][Sni]F[Fhy]L[Hyp][NMeL]DRI-NH2 [JAL-1882]", "REPORTED": "≤ 5 µM"}
{"BINDER": "[3218][Sni]F[leu]L[Hyp][NMeL]DRI-NH2 (reading uncertain; also: printed as 3218-Sni-Phe-leu-Leu-Hyp-Nml-Asp-Arg-Ile-NH2) [JAL-1664]", "REPORTED": "≤ 15 µM"}
{"BINDER": "[Occ][Sni][Gly(NCH2CH2Ph)][leu]L[Hyp][NMeL]DRI-NH2 (reading uncertain; also: printed as Occ-Sni-NHfe-leu-Leu-Hyp-Nml-Asp-Arg-Ile-NH2) [JAL-1635]", "REPORTED": "≤ 15 µM"}
{"BINDER": "[Occ][Sar]FGLPLDRI-NH2 [JAL-0950]", "REPORTED": "≤ 15 µM"}
{"BINDER": "[Occ][Sni]FLL[Hyp][NMeL][d(β3hL)]R[Che] (not fully specified (residue 4); printed as Occ-Sni-Phe-leu-Leu-Hyp-Nml-Ble-Arg-Che; reading uncertain) [JAL-1756]", "REPORTED": "≤ 5 µM"}
